tgt: h5-HT2B (Homo sapiens, UniProt P41595)
Construct: expressed in transfected cells; host or cells: AV12 cells
Sequence (P41595 whole entry): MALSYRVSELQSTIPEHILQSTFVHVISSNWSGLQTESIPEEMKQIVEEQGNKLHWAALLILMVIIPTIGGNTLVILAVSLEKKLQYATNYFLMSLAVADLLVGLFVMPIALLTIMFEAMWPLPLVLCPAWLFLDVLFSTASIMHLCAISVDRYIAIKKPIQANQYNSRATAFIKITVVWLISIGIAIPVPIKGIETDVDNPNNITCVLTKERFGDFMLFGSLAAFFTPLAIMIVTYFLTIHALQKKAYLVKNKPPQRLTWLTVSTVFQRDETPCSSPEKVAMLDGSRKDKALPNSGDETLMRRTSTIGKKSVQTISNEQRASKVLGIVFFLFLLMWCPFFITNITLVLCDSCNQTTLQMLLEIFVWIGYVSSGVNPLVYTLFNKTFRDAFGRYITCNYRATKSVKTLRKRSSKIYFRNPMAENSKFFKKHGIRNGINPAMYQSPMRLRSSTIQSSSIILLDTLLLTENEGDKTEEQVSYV
protocol notes: GTP-γ-[35S] functional assay (SPA), AV12 cells
Type: biochemical
reported conditions: GTPgs functional assay, human recombinant cell line
experimental endpoint: pEC50
Field pEC50 (float): negative decimal logarithm of the concentration in molar.

- compound: "C[C@H](N)Cn1ccc2cc(F)c(Cl)cc21 [Ro 60-0175]"
  measured number: 7.24

## Task Which measured pEC50 value corresponds to C[C@H]1CN(c2ccc(C(F)(F)F)c3ccoc23)CCN1 [CPD 1] ?
## Result 7.01

----------
tgt: h5-HT2B (Homo sapiens)
experimental endpoint: pKi
Lab note: report pKi as minus log10 of the concentration in molar units, number only.

## Task Could you share what pKi was measured for `C[C@H]1CN(c2ccc(C(F)(F)F)c3ccoc23)CCN1` , tested on h5-HT2B (Homo sapiens)?
## Result 6.98
